molecular target: TDP-43 hN12 WT (human, UniProt Q13148 1-259); experiment: filter binding; Filter binding: 50 mM phosphate, 50 mM imidazole, 10 mM beta-mercaptoethanol, pH 7.5, room temperature, 30 min, 10 pmol 32P-labelled nucleic acid; settings: protein: recombinant; chain copies: 2; label: 5'-32P
Sequence (Q13148 1-259): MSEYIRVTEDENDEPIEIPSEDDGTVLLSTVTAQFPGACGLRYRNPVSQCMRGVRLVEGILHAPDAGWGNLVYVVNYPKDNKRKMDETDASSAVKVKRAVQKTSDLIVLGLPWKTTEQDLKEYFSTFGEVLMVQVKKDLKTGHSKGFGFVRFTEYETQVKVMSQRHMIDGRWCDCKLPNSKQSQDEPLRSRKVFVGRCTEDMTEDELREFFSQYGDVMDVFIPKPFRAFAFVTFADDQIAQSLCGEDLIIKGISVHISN

| binder | Kd |
| --- | --- |
| UGUGUGUGUGUGUGUGUGUGUGUGUGUGUG (ssRNA) [(UG)15 RNA] | 5.3 nM |
